All figures here come from ChEMBL document CHEMBL1781986.

- testSystem: 5-hydroxytryptamine receptor 7 (Homo sapiens)
- protocolNotes: Inhibition of human recombinant 5HT7 receptor at 10 uM by radioligand binding assay
Calls of active or inactive are those of the source. The rule behind the calls is not given here.
Please state which outcome applies, choosing from Y (active), N (inactive)

# compound, groupLabel
records = [
    ("COc1ccc(-c2ccn(-c3ccc(O)c([N+](=O)[O-])c3)c2-c2ccc(C(N)=O)cc2C)cc1", "Y"),
    ("Cc1cc(C(N)=O)ccc1-c1c(CCC(=O)O)ccn1-c1ccc(-n2ccnc2)cc1", "N"),
    ("Cc1cc(C(N)=O)ccc1-n1c(CCC(=O)O)ccc1-c1ccc(-n2ccnc2)cc1 [N6022]", "N"),
    ("Cc1cc(C(N)=O)ccc1-c1c(-c2ccc(-n3ccnc3)cc2)ccn1CCC(=O)O", "N"),
]

query: For this compound, state the assay outcome: "COc1ccc(-c2ccn(-c3ccc(C(=O)O)c(O)c3)c2-c2ccc(C(N)=O)cc2C)cc1"
result: Y

====

- testSystem: C-X-C chemokine receptor type 2 (Homo sapiens)
- Sequence (whole entry): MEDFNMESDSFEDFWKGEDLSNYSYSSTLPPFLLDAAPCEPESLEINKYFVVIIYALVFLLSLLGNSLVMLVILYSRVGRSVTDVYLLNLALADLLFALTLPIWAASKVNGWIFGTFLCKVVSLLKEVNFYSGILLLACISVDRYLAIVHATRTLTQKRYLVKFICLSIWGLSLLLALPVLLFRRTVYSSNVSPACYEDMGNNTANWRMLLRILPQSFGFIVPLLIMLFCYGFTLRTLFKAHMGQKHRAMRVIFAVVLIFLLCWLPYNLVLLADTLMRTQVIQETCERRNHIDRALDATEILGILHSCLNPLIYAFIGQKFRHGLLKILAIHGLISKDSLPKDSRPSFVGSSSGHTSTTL
- protocolNotes: Inhibition of human recombinant CXCR2 receptor at 10 uM by radioligand binding assay
Activity calls are given as the source filed them. The calls are words filed in the database; no cut-off is given here.
Please state which outcome applies, choosing from active, inactive

Please review the following examples before continuing.
# compound, groupLabel
records = [
    ("Cc1cc(C(N)=O)ccc1-c1c(-c2ccc(-n3ccnc3)cc2)ccn1CCC(=O)O", "inactive"),
    ("COc1ccc(-c2ccn(-c3ccc(C(=O)O)c(O)c3)c2-c2ccc(C(N)=O)cc2C)cc1", "active"),
    ("COc1ccc(-c2ccn(-c3ccc(O)c([N+](=O)[O-])c3)c2-c2ccc(C(N)=O)cc2C)cc1", "active"),
    ("Cc1cc(C(N)=O)ccc1-c1c(CCC(=O)O)ccn1-c1ccc(-n2ccnc2)cc1", "inactive"),
]

Shift focus to the following entry.
query: For this compound, state the assay outcome: Cc1cc(C(N)=O)ccc1-n1c(CCC(=O)O)ccc1-c1ccc(-n2ccnc2)cc1 [N6022]
result: inactive

====

- testSystem: UniProt P30989
- Sequence (P30989 whole entry): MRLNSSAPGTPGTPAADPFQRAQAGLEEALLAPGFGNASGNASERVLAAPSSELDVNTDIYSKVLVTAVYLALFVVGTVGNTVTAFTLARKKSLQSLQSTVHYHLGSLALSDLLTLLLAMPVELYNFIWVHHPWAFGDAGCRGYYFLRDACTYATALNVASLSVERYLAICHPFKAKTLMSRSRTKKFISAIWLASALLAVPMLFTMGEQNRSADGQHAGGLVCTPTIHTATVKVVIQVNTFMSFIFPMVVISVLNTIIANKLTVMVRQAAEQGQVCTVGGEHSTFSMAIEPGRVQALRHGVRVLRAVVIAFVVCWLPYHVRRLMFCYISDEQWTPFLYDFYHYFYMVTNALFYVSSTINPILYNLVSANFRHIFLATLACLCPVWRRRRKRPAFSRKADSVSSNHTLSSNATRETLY
- protocolNotes: Inhibition of human recombinant NTS1 receptor at 10 uM by radioligand binding assay
The source made the active and inactive calls. No cut-off for these calls is given here.
readoutName: inhibition

Example results:
# testSmiles, inhibition
measured = [
    ("Cc1cc(C(N)=O)ccc1-n1c(CCC(=O)O)ccc1-c1ccc(-n2ccnc2)cc1", "inactive"),
    ("Cc1cc(C(N)=O)ccc1-c1c(CCC(=O)O)ccn1-c1ccc(-n2ccnc2)cc1", "inactive"),
    ("COc1ccc(-c2ccn(-c3ccc(C(=O)O)c(O)c3)c2-c2ccc(C(N)=O)cc2C)cc1", "Active"),
    ("COc1ccc(-c2ccn(-c3ccc(O)c([N+](=O)[O-])c3)c2-c2ccc(C(N)=O)cc2C)cc1", "Active"),
]

query: Fill blank: measured inhibition of the molecule "Cc1cc(C(N)=O)ccc1-c1c(-c2ccc(-n3ccnc3)cc2)ccn1CCC(=O)O" is ____.
result: inactive
